# SGF Half-life (t½) annotations
# Protocol Description: Intact half-life during simulated gastric fluid (SGF) digestion
# Assay Context: SGF pH 1.5, pepsin:polypeptide 1:20 w/w, 37° C.; produced in E. coli unless otherwise noted
Respond numerically; units are s and should not be typed.

Molecule: SEQID-00672 (BS): nutritive polypeptide (protein, listed as Saccharomyces cerevisiae, strain ATCC 204508 / S288c) MSSSESIRMVLIGPPGAGKGTQAPNLQERFHAAHLATGDMLRSQIAKGTQLGLEAKKIMDQGGLVSDDIMVNMIKDELTNNPACKNGFILDGFPRTIPQAEKLDQMLKEQGTPLEKAIELKVDDELLVARITGRLIHPASGRSYHKIFNPPKEDMKDDVTGEALVQRSDDNADALKKRLAAYHAQTEPIVDFYKKTGIWAGVDASQPPATVWADILNKLGKD
Unit Symbol: s
Observed Result: 18

Molecule: SEQID-00346: nutritive polypeptide (protein, Arthrospira platensis NIES-39) MYYDADANLDLLAGKTIAIVGYGSQGHAHALNLKDSGMNVIVGLYPGSKSATKAKDAGLTVYPVDEAAKIADLIMILLPDEVQKTVYKNEIEPNLSEGKTLAFAHGFNIHFGQVVPPENVDVIMVAPKGPGHLVRRTYQEGQGVPCLFAVYQDASGQARDRAMAYAKGIGGTRGGILETTFREETETDLFGEQAVLCGGLSALIKAGFETLVEAGYQPELAYFECLHEVKLIVDLVVEGGLAQMRDSISNTAEYGDYTRGPRVITDATRAEMRKILKEIQTGQFAREFVLENQSGKAGFTAMRRQEAEHPIEEVGHDLRAMFSWLKKKA
Unit Symbol: s
Observed Result: 12

Molecule: SEQID-00647: protein of the 168 nutritive polypeptide library (protein, Arthrospira platensis C1, protein of the 168 nutritive polypeptide library) MALSKIEEARQLNDDDLSEQILEIKKQLANLRLLKATGRLEKPHEIRHTRHRLSQLLTVERERQLPNQSPA
Unit Symbol: s
Observed Result: 12

Molecule: SEQID-00622: protein of the 168 nutritive polypeptide library (protein, listed as Oryza sativa, subsp. japonica, protein of the 168 nutritive polypeptide library) MASEGAVSPAFAYTVVYVKDVAKSAAFYSAAFGYTVRRLDQSHKWAELESGTTTIAFTPLHQRETDALTGAVQLPDSAGERGPVEICFDYADVDAAYRRAVDSGAVPVSPPEQKSWGQKVGYVRDIDGIIVRMGSHVRA
Unit Symbol: s
Observed Result: 396

Next molecule, SGF Half-life (t½) to be filled in.
Return value of SGF Half-life (t½) for input SEQID-00099: nutritive polypeptide (protein, listed as Thermosynechococcus elongatus) MNQSEILEKVKAIVADQLSVDPEKVVPEASFAEDLNADSLDSVELIMALEEEFGVEIPDEEAEKLKTVQDVLDFINNKVAA , no commentary.
60
